Target: Fe(3+)-Zn(2+) purple acid phosphatase (Phaseolus vulgaris)
Sequence (P80366 whole entry): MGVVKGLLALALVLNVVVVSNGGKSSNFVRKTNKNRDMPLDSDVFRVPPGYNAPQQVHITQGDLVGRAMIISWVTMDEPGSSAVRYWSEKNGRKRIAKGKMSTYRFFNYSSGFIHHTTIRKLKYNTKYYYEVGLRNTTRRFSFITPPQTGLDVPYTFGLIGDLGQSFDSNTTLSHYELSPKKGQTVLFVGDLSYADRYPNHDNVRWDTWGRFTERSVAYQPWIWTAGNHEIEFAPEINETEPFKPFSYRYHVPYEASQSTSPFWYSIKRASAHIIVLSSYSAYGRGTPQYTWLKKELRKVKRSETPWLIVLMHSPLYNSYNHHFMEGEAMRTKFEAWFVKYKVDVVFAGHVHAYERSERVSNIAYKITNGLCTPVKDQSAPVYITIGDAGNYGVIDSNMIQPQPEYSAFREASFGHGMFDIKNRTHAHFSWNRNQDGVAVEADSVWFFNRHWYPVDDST
Kindly state pKi for each of the entries shown.
Reminder that pKi means the negative base-10 logarithm of the concentration expressed in mol/L.

Please report the recorded pKi for "O=C(O)CP(=O)(O)O" .
3.23

Please report the recorded pKi for "O=C(O)CCP(=O)(O)O" .
3.80

Please report the recorded pKi for "O=P(O)(O)CP(=O)(O)O" .
3.85
